binders and their reported Kd
Target: T1, recombinant His-tagged human tryptase beta 1 monomer (human, UniProt Q15661 31-275)
T1 construct: also called His6-tagged tryptase monomer; human tryptase b1 monomer
T1 sequence (Q15661 other isoform, or with tags, fused parts or gaps): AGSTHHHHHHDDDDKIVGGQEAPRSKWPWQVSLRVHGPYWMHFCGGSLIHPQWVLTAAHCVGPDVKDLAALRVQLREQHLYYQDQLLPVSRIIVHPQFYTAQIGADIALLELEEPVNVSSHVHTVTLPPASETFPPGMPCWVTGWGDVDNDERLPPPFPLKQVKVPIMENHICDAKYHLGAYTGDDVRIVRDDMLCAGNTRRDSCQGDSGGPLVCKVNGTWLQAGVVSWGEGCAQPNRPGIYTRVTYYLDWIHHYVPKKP
Experiment: SPR (BIAcore T200); IgG1 captured by anti-human Fc, His-tagged monomer injected
API: value field is a number in nM; no unit string.

>>> value_observed("huE104.v11 IgG1 (antibody, V domains shown, also called v11 (of huE104)) VH: EVQLVESGPGLVKPSETLSLTCTVSRFSLIGYAITWIRQPPGKGLEWIGGISSAATTFYSSWAKSRVTISVDTSKNQVSLKLSSVTAADTAVYYCARDPRGYGAALDRLDLWGQGTLVTVSS VL: DIQMTQSPSSLSASVGDRVTITCQSIKSVYNNRLGWYQQKPGKAPKLLIYETSILTSGVPSRFSGSGSGTDFTLTISSLQPEDFATYYCAGGFDRSGDTTFGQGTKVEIK")
0.32
>>> value_observed("hu31A.v6 IgG1 (antibody, V domains shown, also called v6 (of hu31A)) VH: EVQLVESGGGLVQPGGSLRLSCAASGFTFSDYGMVWVRQAPGKGLEWVAFISSGSSTVYYADTMKGRFTISRDNSKNTLYLQMNSLRAEDTAVVYCARRDNYDWYFDVWGQGTLVTVSS VL: DIQLTQSPSSLSASVGDRVTITCSASSSVTYMYWYQQKPGKSPKPWIYRTSDLASGVPSRFSGSGSGTDYTLTISSLQPEDFATYYCQHYHSYPLTFGQGTKVEIK")
1.65

Below: the item to evaluate.
Prompt: Reported Kd, binder hu31A.v1 IgG1 (antibody, V domains shown, also called v1 (of hu31A)) VH: EVQLVESGGGLVQPGGSLRLSCAASGFTFSDYGMVWVRQAPGKGLEWVGFISSGSSTVYYADTMKGRFTISRDNSKNTLYLQMNSLRAEDTAVVYCARRDNYDWYFDVWGQGTLVTVSS VL: DIQMTQSPSSLSASVGDRVTITCSASSSVTYMYWYQQKPGKAPKLLIYRTSDLASGVPSRFSGSGSGTDFTLTISSLQPEDFATYYCQHYHSYPLTFGQGTKVEIK : ____
Response: 4.04
